# TESTED SYSTEM: huNav1.7α + β1 on HEK cells (human, UniProt Q15858 1-1988; Q07699 19-218)
# ASSAY PROTOCOL: binding FACS, HEK cells (HEKa/b1)
EXPERIMENTAL ENDPOINT: pEC50
Conceptually, pEC50 converts a concentration in mol/L into minus its log10.

Query: Quote pEC50 reported for F010301653 (VHH, also called F0103275B05(L11V, S33R, S50Y, S56D, T83R, V89L, N93R)) VHH: EVQLVESGGGVVQPGGSLRLSCAASGSIFNINRMAWYRRAPGKQRELVAYSTNGGDTNYADSVKGRFTISRDNAKRVYLQMNSLRPEDTALYYCRALLQPSIYDISRTYWGQGTLVTVSS please.
Result: 7.54

Query: Quote pEC50 reported for F010301636 (VHH, also called F0103275B05(L11V, R76N, T83R, V89L)) VHH: EVQLVESGGGVVQPGGSLRLSCAASGSIFNINSMAWYRRAPGKQRELVASSTNGGSTNYADSVKGRFTISRDNAKNVYLQMNSLRPEDTALYYCNALLQPSIYDISRTYWGQGTLVTVSS please.
Result: 7.52

Query: Quote pEC50 reported for F010301652 (VHH, also called F0103275B05(L11V, S33R, S50Y, S56D, R76N, T83R, V89L, N93R)) VHH: EVQLVESGGGVVQPGGSLRLSCAASGSIFNINRMAWYRRAPGKQRELVAYSTNGGDTNYADSVKGRFTISRDNAKNVYLQMNSLRPEDTALYYCRALLQPSIYDISRTYWGQGTLVTVSS please.
Result: 7.42

Query: Quote pEC50 reported for F010301641 (VHH, also called F0103275B05(R76_V78insT)(L11V, R76N, T83R, V89L)) VHH: EVQLVESGGGVVQPGGSLRLSCAASGSIFNINSMAWYRRAPGKQRELVASSTNGGSTNYADSVKGRFTISRDNAKNTVYLQMNSLRPEDTALYYCNALLQPSIYDISRTYWGQGTLVTVSS please.
Result: 6.64

Query: Quote pEC50 reported for F010301638 (VHH, also called F0103275B05(L11V, R39Q, R76N, T83R, V89L)) VHH: EVQLVESGGGVVQPGGSLRLSCAASGSIFNINSMAWYRQAPGKQRELVASSTNGGSTNYADSVKGRFTISRDNAKNVYLQMNSLRPEDTALYYCNALLQPSIYDISRTYWGQGTLVTVSS please.
Result: 7.49

Query: Quote pEC50 reported for F010301637 (VHH, also called F0103275B05(L11V, T83R, V89L)) VHH: EVQLVESGGGVVQPGGSLRLSCAASGSIFNINSMAWYRRAPGKQRELVASSTNGGSTNYADSVKGRFTISRDNAKRVYLQMNSLRPEDTALYYCNALLQPSIYDISRTYWGQGTLVTVSS please.
Result: 7.52

Query: Quote pEC50 reported for F010301639 (VHH, also called F0103275B05(R76_V78insT)(L11V, R39Q, T83R, V89L)) VHH: EVQLVESGGGVVQPGGSLRLSCAASGSIFNINSMAWYRQAPGKQRELVASSTNGGSTNYADSVKGRFTISRDNAKRTVYLQMNSLRPEDTALYYCNALLQPSIYDISRTYWGQGTLVTVSS please.
Result: 7.03
